target-or-test-system: T1, hHER3 full length (human, UniProt P21860 20-1342)
T1 construct: On transfected CHO, CHO HER2/HER3, CHO EGFR/HER3 or CHO Flp-In cells; endogenous HER3 of MCF-7 and MDA-MB468 cells in the signalling assays; also called human HER3
experiment-summary: FACS, 400 nM, competitor 21B02-biotin
readout-label: % competition (%)
Give just the number in %; leave the unit off.

binder	unit-of-measure	measured-number
17C08 (VHH, also called 17C8) VHH: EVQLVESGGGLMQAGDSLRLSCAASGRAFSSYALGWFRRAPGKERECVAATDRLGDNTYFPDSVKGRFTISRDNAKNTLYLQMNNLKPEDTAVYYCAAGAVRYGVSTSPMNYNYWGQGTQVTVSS	%	16

In: Return value of % competition for input 21F06 (VHH, c-myc, His6-tagged form as expressed; also called 21F6; HER3MS21F06) VHH: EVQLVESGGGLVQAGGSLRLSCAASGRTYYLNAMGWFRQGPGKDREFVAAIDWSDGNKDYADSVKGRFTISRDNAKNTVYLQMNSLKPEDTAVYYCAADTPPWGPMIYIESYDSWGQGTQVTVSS , no commentary.
Out: 100
